- assay.target: Cathepsin K (Homo sapiens, UniProt P43235)
- Sequence (P43235 115-329, species assumed): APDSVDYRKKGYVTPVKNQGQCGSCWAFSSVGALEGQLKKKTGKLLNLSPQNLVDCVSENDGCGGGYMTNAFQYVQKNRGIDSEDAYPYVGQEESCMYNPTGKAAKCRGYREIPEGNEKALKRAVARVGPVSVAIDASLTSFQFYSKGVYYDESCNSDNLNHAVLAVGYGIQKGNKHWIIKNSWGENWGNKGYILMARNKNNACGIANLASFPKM
- assay.method.text: Cathepsin K inhibition assay, fluorogenic peptide substrate (selectivity for Cat. S over Cat. K)
- Assay type: biochemical
- experimental.setup: ratio of cathepsin K inhibition constant to cathepsin S inhibition constant
readout.name: Selectivity for Cat. S over Cat. K

C[C@@H](CNc1ccc(OC(F)(F)F)cc1)NC(=O)O[C@@H](CC1CCCC1)Cn1cnc2cc(Cl)c(Cl)cc21 [Example 10]    + (+, >10)
C[C@@H](CN1CCc2cc(F)ccc21)NC(=O)O[C@H](Cn1cnc2ccccc21)CC(C)(C)C [Example 4]    + (+, >10)
C[C@@H](CNc1ccc(OC(F)F)cc1)NC(=O)O[C@@H](CC1CCCC1)Cn1cnc2cc(Cl)c(Cl)cc21 [Example 8]    + (+, >10)

* * *

- assay.target: UniProt P07858
- assay.method.text: Cathepsin B inhibition assay, fluorogenic peptide substrate (selectivity for Cat. S over Cat. B)
- Type: biochemical
- experimental.setup: ratio of cathepsin B inhibition constant to cathepsin S inhibition constant
readout.name: Selectivity for Cat. S over Cat. B

C[C@@H](CN1CCc2cc(F)ccc21)NC(=O)O[C@H](Cn1cnc2ccccc21)CC(C)(C)C [Example 4]    +++ (+++, >1000)
CC(C)(C)C[C@H](Cn1cnc2cc(Cl)c(Cl)cc21)OC(=O)N[C@@H](CO)CN1CCc2cc(F)ccc21 [Example 1]    + (+, >10)
C[C@@H](CN1CC(C)(C)c2cc(F)ccc21)NC(=O)O[C@H](Cn1cnc2ccccc21)CC(C)(C)C [Example 11]    +++ (+++, >1000)
CC(C)(C)C(Cn1cnc2cc(Cl)c(Cl)cc21)OC(=O)N[C@@H](CO)CN1CCc2cc(F)ccc21 (mixture of isomers) [Example 3]    + (+, >10)

The reported numbers originate from patent US7256207B2.
